RESULT TYPE: melting point

Value of melting point reported for the molecule CC[C@@H](NC(=O)N1CC(=O)NCC(Cc2cc(Cl)ccc2OC)C1=O)C(=O)Nc1ccc(C)c(C(=O)O)c1 (stereo partly drawn) is 132 to 134 °C

Value of melting point reported for the molecule Cc1cccc(CC2CNC(=O)CN(S(=O)(=O)c3ccc(Cl)cc3)C2=O)c1 (stereo not drawn) is 64 to 66 °C

Value of melting point reported for the molecule "CC[C@@H](NC(=O)N1CC(=O)NC[C@@H](Cc2cc(Cl)ccc2OC)C1=O)c1cccc(C(=O)O)c1" is 121 to 123 °C

Value of melting point reported for the molecule CC[C@@H](NC(=O)N1CC(=O)NCC(Cc2cc(Cl)ccc2OC)C1=O)C(=O)Nc1nnn[nH]1 (stereo partly drawn) is 141 to 142 °C

Value of melting point reported for the molecule "N#Cc1ccc(S(=O)(=O)N2CC(=O)NC/C(=C\c3ccccc3)C2=O)cc1" is 239 °C (dec.)

Value of melting point reported for the molecule "COC(=O)C[C@@H]1C(=O)NC[C@H](Cc2cc(F)ccc2OC)C(=O)N1S(=O)(=O)c1ccc(Cl)cc1" is 73 to 76 °C

Value of melting point reported for the molecule COC(=O)COc1ccc(Cl)cc1CC1CNC(=O)CN(S(=O)(=O)c2ccc(Cl)cc2)C1=O (stereo not drawn) is 138 to 140 °C

Value of melting point reported for the molecule "CC[C@@H](NC(=O)N1CC(=O)NC[C@@H](Cc2cc(Cl)ccc2OC)C1=O)c1cccc(C(=O)[O-])c1.[Na+]" is 161 to 163 °C

Value of melting point reported for the molecule COc1ccc(Cl)cc1CC1CNC(=O)CN(S(=O)(=O)c2ccc(Cl)cc2)C1=O (stereo not drawn) is 110 to 112 °C

Value of melting point reported for the molecule COc1ccc(Cl)cc1CC1CNC(=O)CN(C(=O)Nc2cccc(NC(C)=O)c2)C1=O (stereo not drawn) is 130 to 131 °C

Value of melting point reported for the molecule "COc1ccc(F)cc1/C=C1\CNC(=O)CN(S(=O)(=O)c2ccc(Cl)s2)C1=O" is 150 to 153 °C

Value of melting point reported for the molecule O=C(CN1CC(Cc2ccccc2)C(=O)N(S(=O)(=O)c2ccc(Cl)cc2)CC1=O)NCc1ccccc1 (stereo not drawn) is 187 to 190 °C
